// data source = patent US7547706B2

For each of the compounds below, state its pIC50.
Keep it numeric: pIC50 is minus log10 of the concentration in mol/L.

Lab note: compound "CN(C)C(=O)Cc1nc(-c2ccccc2)nc2c1c1ccc(Cl)cc1n2C" tested on peripheral benzodiazepine receptors (p or PBR sites) (Rattus norvegicus, UniProt P16257); recorded pIC50 was 8.89

Summary line: "CN(C)C(=O)c1nc(-c2ccccc2)nc2c1c1ccc(Cl)cc1n2C" , peripheral benzodiazepine receptors (p or PBR sites) (Rattus norvegicus, UniProt P16257), reported pIC50 = 8.66

Kindly note: peripheral benzodiazepine receptors (p or PBR sites) (Rattus norvegicus, UniProt P16257), "CN(C)C(=O)c1nc(-c2ccncc2)nc2c1c1ccc(Cl)cc1n2C" , pIC50 value reported: 8.51
